All values here come from patent US20090311217A1.

Listed compounds paired with reported log10 of IC50
- target.entity: PI3K-gamma (Homo sapiens)
- Sequence (P48736 whole entry, species assumed): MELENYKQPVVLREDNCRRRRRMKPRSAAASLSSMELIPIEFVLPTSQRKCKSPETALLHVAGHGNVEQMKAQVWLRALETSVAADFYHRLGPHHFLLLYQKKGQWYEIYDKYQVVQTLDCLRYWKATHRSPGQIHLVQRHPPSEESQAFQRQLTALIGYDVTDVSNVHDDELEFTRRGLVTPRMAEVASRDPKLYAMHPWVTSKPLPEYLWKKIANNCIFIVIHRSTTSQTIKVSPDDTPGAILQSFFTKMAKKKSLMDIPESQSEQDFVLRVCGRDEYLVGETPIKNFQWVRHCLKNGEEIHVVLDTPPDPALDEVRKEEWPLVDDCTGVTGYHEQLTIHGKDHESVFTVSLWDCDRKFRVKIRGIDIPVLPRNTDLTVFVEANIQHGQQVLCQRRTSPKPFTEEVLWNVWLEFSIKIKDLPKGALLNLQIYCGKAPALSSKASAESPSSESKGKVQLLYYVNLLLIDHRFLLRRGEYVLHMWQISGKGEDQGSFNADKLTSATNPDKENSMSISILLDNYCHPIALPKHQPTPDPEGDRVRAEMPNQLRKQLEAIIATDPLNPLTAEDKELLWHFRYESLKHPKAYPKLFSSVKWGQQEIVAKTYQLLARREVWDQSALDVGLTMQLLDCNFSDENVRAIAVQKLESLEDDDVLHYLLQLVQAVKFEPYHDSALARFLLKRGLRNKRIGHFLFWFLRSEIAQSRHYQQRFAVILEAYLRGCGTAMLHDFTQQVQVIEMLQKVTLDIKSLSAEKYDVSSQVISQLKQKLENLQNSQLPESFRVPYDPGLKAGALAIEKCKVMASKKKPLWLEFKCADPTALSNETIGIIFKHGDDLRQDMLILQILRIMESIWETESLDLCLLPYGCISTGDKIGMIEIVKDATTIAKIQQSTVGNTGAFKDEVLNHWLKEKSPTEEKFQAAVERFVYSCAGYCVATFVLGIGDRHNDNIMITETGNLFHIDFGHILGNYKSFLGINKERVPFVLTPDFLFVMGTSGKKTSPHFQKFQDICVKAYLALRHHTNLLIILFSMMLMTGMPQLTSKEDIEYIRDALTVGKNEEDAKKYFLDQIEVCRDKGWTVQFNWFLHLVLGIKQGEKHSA
- experiment: PI3K-gamma fluorescence polarization assay
- Assay type: biochemical
- assay.setup: PI3Kγ Avg. IC50
Base-10 log of IC50, unit nM.

Use the examples below as a reference point.
- compound: "COc1ccc2c(c1)c(/C=C1\\Oc3cc(O)cc(O)c3C1=O)c(C)n2CCO [Example 321]"
  result.value: 1.19
- compound: "CNC(=O)Nc1ccc2c(c1)C(=O)/C(=C/c1c(-c3c(C)nn(C)c3C)[nH]c3ccc(OCCOC)cc13)O2 [Compound 680]"
  result.value: 3.78
- compound: "COc1ccc2c(c1)c(/C=C1\\Oc3ccc(NC(=O)NCCN(C)C)cc3C1=O)cn2CCN1CCN(C)CC1 [Compound 574]"
  result.value: 3.48
- compound: "COc1ccc2c(c1)c(/C=C1\\Oc3c(ccc(O)c3F)C1=O)c(C)n2CCN1CCN(C)CC1 [Example 457]"
  result.value: 3.70
- compound: "CNC(=O)Nc1ccc2c(c1)C(=O)/C(=C/c1c[nH]c3c(/C=C/CN4CCOCC4)cc(OC)cc13)O2 [Compound 567]"
  result.value: 3.19
- compound: "CNC(=O)Nc1ccc2c(c1)C(=O)/C(=C/c1c(C3CC3)n(CCN3CCN(C)CC3)c3ccc(OC)cc13)O2 [Compound 559]"
  result.value: 2.73
- compound: "COc1ccc2c(c1)c(/C=C1\\Oc3cc(O)ccc3C1=O)cn2CCCN(C)C [Example 324]"
  result.value: 2.82
- compound: "COc1ccc2[nH]c(-c3c(C)nn(C)c3C)c(/C=C3\\Oc4ccc(NC(=O)Nc5cccc(C(=O)N(C)CCN(C)C)c5)cc4C3=O)c2c1 [Compound 707]"
  result.value: 2.09
- compound: "CNC(=O)Nc1ccc2c(c1)C(=O)/C(=C/c1c(C)n(CCCN3CCOCC3)c3ccc(OC)cc13)O2 [Compound 585]"
  result.value: 2.14
- compound: "CNC(=O)Nc1ccc2c(c1)C(=O)/C(=C/c1c(C)n(CCN3CCCCC3)c3ccc(OC)cc13)O2 [Compound 609]"
  result.value: 2.65

Would you kindly look at the next entry?
Lab book: log10 of IC50 of COc1ccc2[nH]c(C3CCCCC3)c(/C=C3\Oc4ccc(NC(=O)Nc5ccc(C(=O)N(C)CCN(C)C)cc5)cc4C3=O)c2c1 [Compound 688] noted as 0.29
